Reported self-cleavage values are given for each entry in this list.
B1: CPEB3 Ribozyme (parent)
chain: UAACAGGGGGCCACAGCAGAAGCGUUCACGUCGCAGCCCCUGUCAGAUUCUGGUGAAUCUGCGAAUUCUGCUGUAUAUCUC

- Variants of: B1
- assay.method.text: self-cleavage, relative activity (ratio to wild type); higher = more cleavage; in vitro, sequencing

{"mutation.descriptor": "C34U C68U", "self-cleavage": 0.3}
{"mutation.descriptor": "U31A A64G", "self-cleavage": 0.39}
{"mutation.descriptor": "U1C C37U", "self-cleavage": 0.37}
{"mutation.descriptor": "U31C C44A", "self-cleavage": 0.4}
{"mutation.descriptor": "U25C C44U", "self-cleavage": 0.23}
{"mutation.descriptor": "A3U U49A", "self-cleavage": 0.47}
{"mutation.descriptor": "A5G G53U", "self-cleavage": 1.03}
{"mutation.descriptor": "U25C U26A", "self-cleavage": 0.28}
{"mutation.descriptor": "G70A U80C", "self-cleavage": 0.45}
{"mutation.descriptor": "A18C A77G", "self-cleavage": 0.26}
{"mutation.descriptor": "G36A C62A", "self-cleavage": 0.41}
{"mutation.descriptor": "C4A U60A", "self-cleavage": 0.89}
{"mutation.descriptor": "G24U U48C", "self-cleavage": 0.12}
{"mutation.descriptor": "G8A C59A", "self-cleavage": 0.06}
{"mutation.descriptor": "G8C C32U", "self-cleavage": 0.2}
{"mutation.descriptor": "A13U U51C", "self-cleavage": 0.94}
{"mutation.descriptor": "U49A U80G", "self-cleavage": 0.88}
{"mutation.descriptor": "A2U A21U", "self-cleavage": 0.29}
{"mutation.descriptor": "C4U A28U", "self-cleavage": 1.08}
{"mutation.descriptor": "U31A U74C", "self-cleavage": 0.77}
{"mutation.descriptor": "C29G U54A", "self-cleavage": 0.28}
{"mutation.descriptor": "G36A U67C", "self-cleavage": 0.13}
{"mutation.descriptor": "C40U U74G", "self-cleavage": 1.04}
{"mutation.descriptor": "U41A A77C", "self-cleavage": 0.15}
{"mutation.descriptor": "A3G C39U", "self-cleavage": 0.64}
{"mutation.descriptor": "A5G A18U", "self-cleavage": 0.33}
{"mutation.descriptor": "A13C G70A", "self-cleavage": 0.44}
{"mutation.descriptor": "G30C A57G", "self-cleavage": 0.25}
{"mutation.descriptor": "A5C U25C", "self-cleavage": 0.15}
{"mutation.descriptor": "C68A U78C", "self-cleavage": 0.5}
{"mutation.descriptor": "U31C A47G", "self-cleavage": 0.8}
{"mutation.descriptor": "A20C C27A", "self-cleavage": 0.37}
{"mutation.descriptor": "U41A U78G", "self-cleavage": 0.13}
{"mutation.descriptor": "C50G U69A", "self-cleavage": 0.17}
{"mutation.descriptor": "C50A U74C", "self-cleavage": 0.87}
{"mutation.descriptor": "G22C A57G", "self-cleavage": 0.32}
{"mutation.descriptor": "U1A A56G", "self-cleavage": 0.71}
{"mutation.descriptor": "C4U A20U", "self-cleavage": 0.42}
{"mutation.descriptor": "G9A A64G", "self-cleavage": 0.3}
{"mutation.descriptor": "C23G A64G", "self-cleavage": 0.08}
{"mutation.descriptor": "U26A A64U", "self-cleavage": 0.27}
{"mutation.descriptor": "G22C A56G", "self-cleavage": 0.21}
{"mutation.descriptor": "G8A U41A", "self-cleavage": 0.07}
{"mutation.descriptor": "G7U C62U", "self-cleavage": 0.21}
{"mutation.descriptor": "U31A G55A", "self-cleavage": 0.41}
{"mutation.descriptor": "U25A U43C", "self-cleavage": 0.28}
{"mutation.descriptor": "G10A G24A", "self-cleavage": 0.16}
{"mutation.descriptor": "A35C U74C", "self-cleavage": 1.17}
{"mutation.descriptor": "U1A U66A", "self-cleavage": 0.42}
{"mutation.descriptor": "G10C U76C", "self-cleavage": 0.19}
{"mutation.descriptor": "A13G U26G", "self-cleavage": 0.21}
{"mutation.descriptor": "C50G U78C", "self-cleavage": 0.71}
{"mutation.descriptor": "U43C U49G", "self-cleavage": 0.26}
{"mutation.descriptor": "A18U U51A", "self-cleavage": 0.41}
{"mutation.descriptor": "A5U C17G", "self-cleavage": 0.26}
{"mutation.descriptor": "G24A C81A", "self-cleavage": 0.16}
{"mutation.descriptor": "U26C A35G", "self-cleavage": 1.07}
{"mutation.descriptor": "U31A C37U", "self-cleavage": 0.16}
{"mutation.descriptor": "C32U C34U", "self-cleavage": 0.19}
{"mutation.descriptor": "A3U U26G", "self-cleavage": 0.23}
{"mutation.descriptor": "C17U U41A", "self-cleavage": 0.24}
{"mutation.descriptor": "G33U A45G", "self-cleavage": 0.13}
{"mutation.descriptor": "G22A A64U", "self-cleavage": 0.32}
{"mutation.descriptor": "C29U U54C", "self-cleavage": 0.42}
{"mutation.descriptor": "A56G U69C", "self-cleavage": 0.43}
{"mutation.descriptor": "A3U C17U", "self-cleavage": 0.5}
{"mutation.descriptor": "U60A C71A", "self-cleavage": 0.39}
{"mutation.descriptor": "A20G U49C", "self-cleavage": 0.31}
{"mutation.descriptor": "A35U C79U", "self-cleavage": 0.64}
{"mutation.descriptor": "U43C U51A", "self-cleavage": 0.71}
{"mutation.descriptor": "U31G A45U", "self-cleavage": 0.57}
{"mutation.descriptor": "A64G U80C", "self-cleavage": 0.95}
{"mutation.descriptor": "U41A U80G", "self-cleavage": 0.41}
{"mutation.descriptor": "A64G U74A", "self-cleavage": 1.2}
{"mutation.descriptor": "C27G A35U", "self-cleavage": 0.16}
